B1: library; numbered along this chain (parent)
chain: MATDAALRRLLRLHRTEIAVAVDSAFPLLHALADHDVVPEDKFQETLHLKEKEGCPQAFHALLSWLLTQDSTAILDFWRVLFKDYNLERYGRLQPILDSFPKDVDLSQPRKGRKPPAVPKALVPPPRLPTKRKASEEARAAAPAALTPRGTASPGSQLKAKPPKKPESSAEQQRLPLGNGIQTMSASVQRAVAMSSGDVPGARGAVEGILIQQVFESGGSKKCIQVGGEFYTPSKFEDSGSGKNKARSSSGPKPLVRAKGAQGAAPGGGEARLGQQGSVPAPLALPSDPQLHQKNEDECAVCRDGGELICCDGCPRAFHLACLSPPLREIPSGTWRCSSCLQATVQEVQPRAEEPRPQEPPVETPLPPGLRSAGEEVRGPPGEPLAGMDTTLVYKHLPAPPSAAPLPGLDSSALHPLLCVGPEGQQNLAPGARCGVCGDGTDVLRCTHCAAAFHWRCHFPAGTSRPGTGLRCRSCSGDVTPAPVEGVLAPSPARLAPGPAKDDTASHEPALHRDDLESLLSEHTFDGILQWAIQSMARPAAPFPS

Variants of: B1
Assay: AIRE transcriptional activation functional score (insulin promoter-GFP; nonsense median 0, synonymous median 1) (normalised score); higher = higher AIRE activity (more reporter activation)
Details: with insulin promoter-GFP reporter in HEK293
Record Met whenever AIRE transcriptional activation functional score is at 0.6 or higher; record Not met when lower.

> print(dat)
   mutation.list  assigned.category
1          T334M                Met
2          G218F            Not met
3          G435M            Not met
4           L67E            Not met
5          P282C                Met
6          C322A                Met
7           F77E            Not met
8           D70K                Met
9          V188Q                Met
